Target sequence: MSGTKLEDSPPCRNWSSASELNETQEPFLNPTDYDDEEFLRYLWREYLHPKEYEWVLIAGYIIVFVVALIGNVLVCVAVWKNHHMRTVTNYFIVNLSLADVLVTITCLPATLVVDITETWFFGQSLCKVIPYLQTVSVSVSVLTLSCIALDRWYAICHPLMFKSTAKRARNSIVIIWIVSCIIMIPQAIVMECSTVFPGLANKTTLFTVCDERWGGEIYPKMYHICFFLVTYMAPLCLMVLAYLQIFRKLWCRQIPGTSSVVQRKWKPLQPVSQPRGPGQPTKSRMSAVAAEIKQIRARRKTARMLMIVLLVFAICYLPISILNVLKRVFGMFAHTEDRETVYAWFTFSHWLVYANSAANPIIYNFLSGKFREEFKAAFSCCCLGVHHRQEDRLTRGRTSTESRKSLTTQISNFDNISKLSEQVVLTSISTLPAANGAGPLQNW
measured-parameter: pKi
Remember, pKi is on a log scale: it is -log10 of the molar concentration.

# lookup: pKi of CNC(=O)[C@@H](c1ccccc1)N1CCc2nc(OC)c(OC)cc2[C@@H]1CCc1ccc(F)cc1F 9.00
